Target System: EGFR^L858R (Homo sapiens, UniProt P00533, L858R)
Sequence (P00533 25-1210 L858R): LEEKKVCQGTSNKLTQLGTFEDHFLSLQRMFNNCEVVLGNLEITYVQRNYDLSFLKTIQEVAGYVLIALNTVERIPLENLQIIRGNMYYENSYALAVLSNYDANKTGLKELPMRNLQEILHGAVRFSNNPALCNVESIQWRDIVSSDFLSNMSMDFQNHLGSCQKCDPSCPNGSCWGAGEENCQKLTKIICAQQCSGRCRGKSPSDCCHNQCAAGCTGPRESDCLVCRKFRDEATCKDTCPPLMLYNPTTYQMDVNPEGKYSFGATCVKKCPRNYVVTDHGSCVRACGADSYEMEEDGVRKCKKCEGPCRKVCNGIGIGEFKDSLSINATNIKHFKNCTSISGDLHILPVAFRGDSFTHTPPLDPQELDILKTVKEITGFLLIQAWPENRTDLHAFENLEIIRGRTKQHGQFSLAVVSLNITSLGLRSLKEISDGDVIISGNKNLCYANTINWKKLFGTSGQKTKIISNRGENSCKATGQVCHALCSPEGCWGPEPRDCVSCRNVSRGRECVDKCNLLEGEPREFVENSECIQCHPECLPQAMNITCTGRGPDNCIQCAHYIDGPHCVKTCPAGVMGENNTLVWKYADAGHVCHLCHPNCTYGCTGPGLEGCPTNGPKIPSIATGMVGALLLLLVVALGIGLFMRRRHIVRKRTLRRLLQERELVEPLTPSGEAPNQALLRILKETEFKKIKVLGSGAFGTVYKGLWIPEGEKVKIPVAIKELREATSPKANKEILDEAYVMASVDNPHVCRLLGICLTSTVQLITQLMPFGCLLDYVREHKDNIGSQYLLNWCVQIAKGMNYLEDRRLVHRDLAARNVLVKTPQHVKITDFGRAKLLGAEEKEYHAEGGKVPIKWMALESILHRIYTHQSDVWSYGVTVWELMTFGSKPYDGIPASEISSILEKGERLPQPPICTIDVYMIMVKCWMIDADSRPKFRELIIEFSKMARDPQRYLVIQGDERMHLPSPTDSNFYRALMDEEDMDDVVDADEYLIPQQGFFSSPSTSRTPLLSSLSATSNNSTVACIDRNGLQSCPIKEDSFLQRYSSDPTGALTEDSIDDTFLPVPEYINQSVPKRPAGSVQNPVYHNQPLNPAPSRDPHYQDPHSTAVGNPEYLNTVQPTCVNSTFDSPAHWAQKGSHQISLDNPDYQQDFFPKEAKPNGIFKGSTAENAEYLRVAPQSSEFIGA
Method Notes: in vitro kinase assay (HTRF KinEASE-TK kit), L
Conditions: kinase inhibition
pIC50: −log10 of the molar value.
Catalogue of molecules with associated pIC50

INSERT INTO results (molecule, test_value) VALUES
  ('C[C@H]1CCOc2c(cnn2C)-c2nccc(n2)Nc2cc3c(cn2)c(-c2ccc(CN4CC[C@@H](N(C)C)C4)n2C)nn31', '> 8.00'),
  ('CC(C)n1cc(-c2nn3c4cc(ncc24)Nc2ccnc(n2)-c2cnn(C)c2OCC[C@@H]3C)cc1CN1CCOCC1', '> 8.00'),
  ('C[C@H]1CCOc2c(cnn2C)-c2nccc(n2)Nc2cc3c(cn2)c(-c2cccc(CN(C)C)n2)nn31', '7.00 to 8.00'),
  ('CC1CCOc2c(cnn2C)-c2nccc(n2)Nc2cc3c(cn2)c(-c2cnn(C4CC4)c2)nn31 (stereo not shown)', '7.00 to 8.00'),
  ('CN(C)CC1CCN(c2nn3c4cc(ncc24)Nc2ccnc(n2)-c2cnn(C)c2OCCC3)C1 (stereo not shown)', '7.00 to 8.00'),
  ('CCC1CCOc2c(cnn2C)-c2nccc(n2)Nc2cc3c(cn2)c(N2CCC2)nn31 (stereo not shown)', '7.00 to 8.00');

Query block: Identify measured pIC50 associated with C[C@H]1CCOc2c(cnn2C)-c2nccc(n2)Nc2cc3c(cn2)c(-c2ccc(CN(C)C)o2)nn31
Result block: > 8.00

Query block: Identify pIC50 associated with the molecule CCn1cc(-c2nn3c4cc(ncc24)Nc2ccnc(n2)-c2cnn(C)c2OCC[C@@H]3C)cc1CN1CCN(C)CC1
Result block: > 8.00

Query block: Write down pIC50 measured for item CN1CCN(C(=O)C2CCN(c3nn4c5cc(ncc35)Nc3ccnc(n3)-c3cnn(C)c3OCCC4)C2)CC1 (stereo not shown)
Result block: 7.00 to 8.00

Query block: Item CC1CCOc2c(cnn2C)-c2nccc(n2)Nc2cc3c(cn2)c(-c2cccn2CCN(C)C)nn31 (stereo not shown) : provide pIC50
Result block: 7.00 to 8.00

Query block: Check the records and state pIC50 for CC1CCOc2c(cnn2C)-c2nccc(n2)Nc2cc3c(cn2)c(N2CC(C(=O)N(C)C)C2)nn31 (stereo not shown)
Result block: 7.00 to 8.00

Query block: Return the recorded pIC50 value; entry: C[C@H]1CCOc2c(cnn2C)-c2nccc(n2)Nc2cc3c(cn2)c(-c2ccc(CN4CCCCC4)n2C)nn31
Result block: > 8.00

Query block: Give reported pIC50 value for C[C@H]1CCOc2c(cnn2C)-c2nccc(n2)Nc2cc3c(cn2)c(-c2cc(CN4CCN(C)CC4)n(C)n2)nn31
Result block: > 8.00

====

Each entry below lists one item and its recorded GI50 value.
Target System: Ba/F3 EGFR-Del19/T790M (Homo sapiens, UniProt P00533, T790M, cells depend on it, form not given)
Sequence (P00533 with tags, fused parts or gaps DEL746-750/T790M, form open): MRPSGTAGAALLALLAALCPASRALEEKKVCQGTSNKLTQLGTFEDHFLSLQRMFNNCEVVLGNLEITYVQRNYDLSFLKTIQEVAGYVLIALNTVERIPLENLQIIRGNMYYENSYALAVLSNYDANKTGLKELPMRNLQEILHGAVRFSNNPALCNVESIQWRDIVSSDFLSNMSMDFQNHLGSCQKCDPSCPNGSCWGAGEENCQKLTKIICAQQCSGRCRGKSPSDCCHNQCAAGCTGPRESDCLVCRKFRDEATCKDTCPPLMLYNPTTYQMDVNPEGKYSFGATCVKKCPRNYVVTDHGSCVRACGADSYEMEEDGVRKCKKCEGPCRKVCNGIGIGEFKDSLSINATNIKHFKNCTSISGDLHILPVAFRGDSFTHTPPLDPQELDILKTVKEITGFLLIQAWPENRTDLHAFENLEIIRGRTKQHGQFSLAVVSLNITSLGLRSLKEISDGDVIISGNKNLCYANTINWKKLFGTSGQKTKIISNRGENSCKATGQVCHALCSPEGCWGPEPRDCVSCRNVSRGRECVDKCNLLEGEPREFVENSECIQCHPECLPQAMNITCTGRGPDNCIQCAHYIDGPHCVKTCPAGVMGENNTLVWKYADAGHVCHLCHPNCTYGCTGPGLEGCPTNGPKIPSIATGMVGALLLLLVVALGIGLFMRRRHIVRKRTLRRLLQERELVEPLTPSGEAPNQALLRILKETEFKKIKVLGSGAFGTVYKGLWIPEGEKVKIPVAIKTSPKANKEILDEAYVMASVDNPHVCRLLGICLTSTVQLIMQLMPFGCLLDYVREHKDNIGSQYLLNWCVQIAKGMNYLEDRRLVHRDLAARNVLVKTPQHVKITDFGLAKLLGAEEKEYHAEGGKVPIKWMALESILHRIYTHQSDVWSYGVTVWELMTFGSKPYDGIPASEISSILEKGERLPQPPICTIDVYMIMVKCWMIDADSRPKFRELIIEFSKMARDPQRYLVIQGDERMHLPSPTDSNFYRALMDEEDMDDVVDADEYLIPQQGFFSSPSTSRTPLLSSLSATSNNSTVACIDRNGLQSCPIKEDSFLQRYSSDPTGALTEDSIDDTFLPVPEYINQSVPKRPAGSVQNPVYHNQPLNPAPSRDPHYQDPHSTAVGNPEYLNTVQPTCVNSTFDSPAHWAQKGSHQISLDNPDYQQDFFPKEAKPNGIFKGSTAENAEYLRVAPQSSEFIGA
Method Notes: Ba/F3 viability assay (CellTiter-Glo), DT
Type: cell-based
Conditions: anti-proliferation, read-out: BaF3 DT IC50

// known answers, use as guide
INSERT INTO results (molecule, test_value) VALUES
  ('C[C@H]1CCOc2c(cnn2C)-c2nccc(n2)Nc2cc3c(cn2)c(-c2cccc(CN(C)C)c2)nn31', '< 10 nM'),
  ('C[C@H]1CCOc2c(cnn2C)-c2nccc(n2)Nc2cc3c(cn2)c(-c2ccc(CN(C)CCF)n2C)nn31', '< 10 nM'),
  ('CCCN(C)Cc1ccc(-c2nn3c4cc(ncc24)Nc2ccnc(n2)-c2cnn(C)c2OCC[C@@H]3C)n1C', '< 10 nM'),
  ('Cn1ncc2c1OCCCn1nc(N3CCCC3C(=O)O)c3cnc(cc31)Nc1ccnc-2n1 (centres unmarked)', '100 to 1000 nM'),
  ('CC1CCCCOc2c(cnn2C)-c2nccc(n2)Nc2cc3c(cn2)c(N2CCC2)nn31 (centres unmarked)', '10 to 100 nM'),
  ('Cn1ncc2c1OCCCn1nc(N3CCCC3CO)c3cnc(cc31)Nc1ccnc-2n1 (centres unmarked)', '100 to 1000 nM');

Query block: Entry CC1CCCOc2c(cnn2C)-c2nccc(n2)Nc2cc3c(cn2)c(-c2ccc(CN4CCN(C5CC5)CC4)o2)nn31 (centres unmarked) needs its GI50 filled in; supply it.
Result block: 10 to 100 nM

Query block: Consider the molecule C[C@H]1CCOc2c(cnn2C)-c2nccc(n2)Nc2cc3c(cn2)c(-c2cc(OCCN(C)C)ccc2F)nn31 . State its measured GI50.
Result block: 10 to 100 nM

Query block: Indicate its recorded GI50; the molecule in question is Cc1nn(CCC(C)(C)O)cc1-c1nn2c3cc(ncc13)Nc1ccnc(n1)-c1cnn(C)c1OCCCC2C (centres unmarked)
Result block: 10 to 100 nM

Query block: Give a short answer stating reported GI50 for C[C@H]1CCOc2c(cnn2C)-c2nccc(n2)Nc2cc3c(cn2)c(N2CCOCC2)nn31 .
Result block: 10 to 100 nM

Query block: Give the reported value of GI50 for this record: CC1CCOc2c(cnn2C)-c2nccc(n2)Nc2cc3c(cn2)c(N2CC(C(=O)N(C)C)C2)nn31 (centres unmarked)
Result block: 10 to 100 nM

====

Below: a set of entries, each annotated with reported GI50.
Target System: Ba/F3 EGFR-Del19/T790M/C797S (Homo sapiens, UniProt P00533, T790M/C797S, cells depend on it, form not given)
Sequence (P00533 with tags, fused parts or gaps DEL746-750/T790M/C797S, form open): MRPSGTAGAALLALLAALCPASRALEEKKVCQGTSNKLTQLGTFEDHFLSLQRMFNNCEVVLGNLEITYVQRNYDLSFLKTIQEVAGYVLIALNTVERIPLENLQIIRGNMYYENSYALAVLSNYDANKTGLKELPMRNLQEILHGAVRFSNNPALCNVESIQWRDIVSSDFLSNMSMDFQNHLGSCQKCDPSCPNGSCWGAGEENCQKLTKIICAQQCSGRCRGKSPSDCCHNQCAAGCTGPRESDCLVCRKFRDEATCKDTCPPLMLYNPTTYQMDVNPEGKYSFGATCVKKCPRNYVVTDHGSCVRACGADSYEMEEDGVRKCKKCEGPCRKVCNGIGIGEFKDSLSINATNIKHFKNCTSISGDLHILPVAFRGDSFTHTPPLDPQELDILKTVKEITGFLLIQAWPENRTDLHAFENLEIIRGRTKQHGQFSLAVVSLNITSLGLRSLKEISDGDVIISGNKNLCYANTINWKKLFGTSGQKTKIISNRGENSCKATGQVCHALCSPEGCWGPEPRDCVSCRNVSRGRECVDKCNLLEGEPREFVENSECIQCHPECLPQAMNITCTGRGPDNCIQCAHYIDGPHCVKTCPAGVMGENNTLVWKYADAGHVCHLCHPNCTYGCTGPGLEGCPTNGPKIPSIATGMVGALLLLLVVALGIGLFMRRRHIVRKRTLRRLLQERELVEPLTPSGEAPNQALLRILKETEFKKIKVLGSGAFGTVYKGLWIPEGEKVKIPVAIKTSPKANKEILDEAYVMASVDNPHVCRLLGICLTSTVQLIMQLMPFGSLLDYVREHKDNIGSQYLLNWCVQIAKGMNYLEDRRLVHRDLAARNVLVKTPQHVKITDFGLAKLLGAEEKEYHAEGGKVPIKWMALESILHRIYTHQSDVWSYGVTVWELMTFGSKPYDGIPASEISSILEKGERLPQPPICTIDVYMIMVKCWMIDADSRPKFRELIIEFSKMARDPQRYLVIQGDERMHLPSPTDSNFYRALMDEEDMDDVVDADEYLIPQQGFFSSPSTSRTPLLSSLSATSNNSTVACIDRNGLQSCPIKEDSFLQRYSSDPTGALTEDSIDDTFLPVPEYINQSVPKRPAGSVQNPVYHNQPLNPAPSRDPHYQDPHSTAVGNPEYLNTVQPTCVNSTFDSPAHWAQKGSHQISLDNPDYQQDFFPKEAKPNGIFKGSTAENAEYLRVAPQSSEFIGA
Method Notes: Ba/F3 viability assay (CellTiter-Glo), DTC
Assay type: cell-based
Conditions: anti-proliferation, read-out: BaF3 DTC IC50

Some compounds with known GI50 results, for comparison:
INSERT INTO measurements (compound, measured_parameter, test_value) VALUES
  ('CC(C)N1CCN(CC2CCN(c3nn4c5cc(ncc35)Nc3ccnc(n3)-c3cnn(C)c3OCC[C@@H]4C)C2)CC1 (stereo partly shown)', 'GI50', '< 10 nM'),
  ('CC1CCCOc2c(cnn2C)-c2nccc(n2)Nc2cc3c(cn2)c(-c2ccnn2C)nn31 (stereo not shown)', 'GI50', '10 to 100 nM'),
  ('C[C@H]1CCOc2c(cnn2C)-c2nccc(n2)Nc2cc3c(cn2)c(-c2cc(CN4CCOCC4)n(C)c2)nn31', 'GI50', '< 10 nM');

Would you kindly look at the next entry?
Query block: Give the reported GI50 for this compound. CC1CCOc2c(cnn2C)-c2nccc(n2)Nc2cc3c(cn2)c(N2CCC2)nn31 (stereo not shown)
Result block: 10 to 100 nM

====

Target System: Ba/F3 EGFR-Del19/T790M/C797S (Homo sapiens, UniProt P00533, T790M/C797S, cells depend on it, form not given)
Method Notes: Ba/F3 viability assay (CellTiter-Glo), DTC
Type: cell-based
Conditions: anti-proliferation, read-out: BaF3 DTC IC50
Measured Parameter: GI50

INSERT INTO measurements (compound, measured_parameter, test_value) VALUES
  ('Cc1cc(OCCN(C)C)cc(-c2nn3c4cc(ncc24)Nc2ccnc(n2)-c2cnn(C)c2OCC[C@@H]3C)c1', 'GI50', '10 to 100 nM'),
  ('C[C@H]1CCOc2c(cnn2C)-c2nccc(n2)Nc2cc3c(cn2)c(-c2ccc(CN4CCCC4)n2C)nn31', 'GI50', '< 10 nM'),
  ('CC1CCOc2c(cnn2C)-c2nccc(n2)Nc2cc3c(cn2)c(N2CC(C(C)(C)O)C2)nn31 (centres unmarked)', 'GI50', '10 to 100 nM');

Query block: Give GI50 for C[C@H]1CCOc2c(cnn2C)-c2nccc(n2)Nc2cc3c(cn2)c(-c2cc(CN4CCOCC4)n(C)n2)nn31
Result block: < 10 nM

Query block: Note GI50 for the compound shown: C[C@H]1CCOc2c(cnn2C)-c2nccc(n2)Nc2cc3c(cn2)c(-c2cccc(OCCN(C)C)c2)nn31
Result block: < 10 nM

Query block: Give the value of GI50 reported for the following: C[C@H]1CCOc2c(cnn2C)-c2nccc(n2)Nc2cc3c(cn2)c(-c2cc(OCCN(C)C)ccc2F)nn31
Result block: 10 to 100 nM

Query block: Output GI50 of Cc1ccc(-c2nn3c4cc(ncc24)Nc2ccnc(n2)-c2cnn(C)c2OCC[C@@H]3C)n1C
Result block: 10 to 100 nM

Query block: Fill in GI50 for record Cc1c(-c2nn3c4cc(ncc24)Nc2ccnc(n2)-c2cnn(C)c2OCCCC3C)cnn1CCC(C)(C)O (centres unmarked)
Result block: 10 to 100 nM

====

System: Ba/F3 Parental
Method Notes: Ba/F3 viability assay (CellTiter-Glo), parental
Format: cell-based
Conditions: Mus musculus, BaF3, anti-proliferation
Measured Parameter: IC50

INSERT INTO results (molecule, measured_parameter, test_value) VALUES
  ('C[C@H]1CCOc2c(cnn2C)-c2nccc(n2)Nc2cc3c(cn2)c(-c2cc(CN4CCOCC4)n(C)n2)nn31', 'IC50', '≥ 1 µM');

Query block: Input CCn1c(CN2CCN(C3CC3)CC2)ccc1-c1nn2c3cc(ncc13)Nc1ccnc(n1)-c1cnn(C)c1OCC[C@@H]2C , output reported IC50.
Result block: 0.1 to 1 µM

Query block: Quote IC50 reported for C[C@H]1CCOc2c(cnn2C)-c2nccc(n2)Nc2cc3c(cn2)c(-c2ccc(CN4CCN(C)CC4)n2C)nn31 please.
Result block: 0.1 to 1 µM

Query block: Complete the entry with IC50 for CCn1cc(CN2CCN(C)CC2)cc1-c1nn2c3cc(ncc13)Nc1ccnc(n1)-c1cnn(C)c1OCCC2C (stereo not drawn)
Result block: 0.01 to 0.1 µM

Query block: Please look at this molecule and report its IC50: CCn1cc(-c2nn3c4cc(ncc24)Nc2ccnc(n2)-c2cnn(C)c2OCC[C@@H]3C)cc1CN1CCOCC1
Result block: 0.1 to 1 µM

Query block: Could you please provide reported IC50 for Cc1ccc(-c2nn3c4cc(ncc24)Nc2ccnc(n2)-c2cnn(C)c2OCC[C@@H]3C)n1C ? Thanks!
Result block: ≥ 1 µM
